# System: Caco-2
# PROCEDURE_DETAILS: relative viability EC50 (midpoint between 100% and the lowest measured viability); higher = less toxic
# TEST_SETTINGS: 72 h
For each record, write down the corresponding relative viability EC50.

Return reported relative viability EC50; argument: "C[C@]12CCC(=O)C=C1C=C[C@@H]1[C@@H]2CC[C@@]2(C)[C@H]1CC[C@@]21CCC(=O)O1"
> 10 µM

Next up: "Cn1cc(C2=C(c3cn(C4CCN(Cc5ccccn5)CC4)c4ccccc34)C(=O)NC2=O)c2ccccc21"
> 10 µM

Next up: "CC(C)C[C@H](NC(=O)[C@H](CCCCN)NC(=O)[C@H](CCCNC(=N)N)NC(=O)[C@H](C)NC(=O)[C@H](CO)NC(=O)[C@H](CCCCN)NC(=O)[C@H](CCCNC(=N)N)NC(=O)[C@H](C)NC(=O)CNC(=O)[C@@H](NC(=O)[C@H](Cc1ccccc1)NC(=O)CNC(=O)CNC(=O)[C@@H](N)Cc1ccccc1)[C@@H](C)O)C(=O)N[C@@H](C)C(=O)N[C@@H](CC(N)=O)C(=O)N[C@@H](CCC(N)=O)C(=O)O"
> 10 µM

Next up: CCC(C)n1ncn(-c2ccc(N3CCN(c4ccc(OCC5COC(Cn6cncn6)(c6ccc(Cl)cc6Cl)O5)cc4)CC3)cc2)c1=O (stereo not given)
> 10 µM

Next up: "O[C@@H](CN1CCNCC1)Cn1c2ccc(Br)cc2c2cc(Br)ccc21"
2.06 µM

* * *

# System: HepG2
# PROCEDURE_DETAILS: cell viability relative to DMSO; higher = less toxic
# TEST_SETTINGS: 72 h; 10 nM
RESULT_TYPE: cell viability (%)
Write the answer as a number in %, unit excluded.

Return reported cell viability; argument: CCCC(=O)N1CCCN(c2nc(N)c3cc(OC)c(OC)cc3n2)CC1 [bunazosin]
99.3

Next up: NC[C@H]1O[C@H](O[C@H]2[C@H](O)[C@@H](O[C@H]3O[C@H](CO)[C@@H](O)[C@H](N)[C@H]3O)[C@H](N)C[C@@H]2N)[C@H](N)[C@@H](O)[C@@H]1O [bekanamycin]
97.8

Next up: COc1ccc(O)cc1 [mequinol]
90

Next up: CC1(N2CCC(n3c([C@@H]4CCCNC4)nc4ccccc43)CC2)CCCCCCC1 [MCOPPB]
100

Next up: N#Cc1c(N(CC(=O)O)CC(=O)O)sc(C(=O)O)c1CC(=O)O [Strontium Ranelate]
94.9

Next up: CC(C)NCC(O)c1ccc(N)c(C#N)c1 (configuration not stated) [cimaterol]
91.6

Next up: CN(C)CCCN1c2ccccc2Sc2ccccc21 [promazine]
89.6

Next up: COc1c(N2CCNC(C)C2)c(F)cc2c(=O)c(C(=O)O)cn(C3CC3)c12 (configuration not stated) [gatifloxacin]
101

Next up: CCNC(=O)Nc1ccc(-c2nc3c(c(N4CCOC[C@@H]4C)n2)CCN(C2COC2)C3)cc1 [GDC-0349]
99.8

Next up: "Nc1ncnc2[nH]nc(Nc3ccc(F)cc3)c12"
101

Next up: "Cn1ccc2cc3c(cc21)CCN3C(=O)Nc1cccnc1"
114

Next up: CC[N+](C)(CC)CCOC(=O)C1c2ccccc2Oc2ccccc21 [methantheline]
88.7

Next up: CCCCCCCCCCC[C@@H](C[C@@H]1OC(=O)[C@H]1CCCCCC)OC(=O)[C@H](CC(C)C)NC=O [orlistat]
106

Next up: "O=C1NC(=O)c2cc(Nc3ccccc3)c(Nc3ccccc3)cc21"
106

Next up: CC(C)(C)c1ccc(-c2nc3ccccc3[nH]2)cc1 [ZLN005]
98.2

Next up: O=C(COc1ccc(C(=O)c2ccccc2)cc1)NC1CCN(Cc2ccccc2)CC1 [adiporon]
94.3

Next up: O=S(=O)(O)c1ccc2[nH]c(-c3ccccc3)nc2c1 [phenylbenzimidazole-sulfonic-acid]
93

Next up: COc1cc(/C=C2\CCC/C(=C\c3ccc(O)c(OC)c3)C2=O)ccc1O [cyclovalone]
95.2

Next up: NCC(=O)CCC(=O)O [5-aminolevulinic-acid]
99

Next up: C[C@H](O)[C@H](O)[C@H]1CNc2nc(N)[nH]c(=O)c2N1 [sapropterin]
87.3

Next up: COc1cccc([C@@H](C)NCCCc2ccccc2Cl)c1 [tecalcet]
101

Next up: CCOC(=O)C1=C(C)NC(=S)NC1c1cccc(O)c1 (configuration not stated) [monastrol]
107

Next up: COC1CCN(C(=O)c2cc(Cc3n[nH]c(=O)c4ccccc34)ccc2F)CC1 [AZD2461]
86

Next up: O=C(Nc1ccccc1-c1cn2c(CN3CCNCC3)csc2n1)c1cnc2ccccc2n1 [SRT1720]
94.4

Next up: CCC(C)n1ncn(-c2ccc(N3CCN(c4ccc(OCC5COC(Cn6cncn6)(c6ccc(Cl)cc6Cl)O5)cc4)CC3)cc2)c1=O (configuration not stated) [itraconazole]
94.9

Next up: N[C@@H](CS(=O)O)C(=O)O [L-cysteinesulfinic-acid]
90.9

Next up: CCCN1CCCC(c2cccc(O)c2)C1 (stereo in doubt) [preclamol]
110

Next up: NS(=O)(=O)c1cc(Cl)c(Cl)c(S(N)(=O)=O)c1 [diclofenamide]
103

Next up: "NC(=O)CCCCn1ccc(/N=C(\N)NCC(F)(F)F)n1"
97.7

Next up: CS(=O)(=O)OCOS(C)(=O)=O [MDMS]
97.1

Next up: CCCCC(=O)O[C@H]1CC[C@H]2[C@@H]3CCc4cc(O)ccc4[C@H]3CC[C@]12C [ESTRADIOL VALERATE]
106

Next up: CC/C=C\C/C=C\C/C=C\C/C=C\C/C=C\C/C=C\CCC(=O)OCC [doconexent-ethyl-ester]
98.9

Next up: O=C(Nc1ccccc1C(=O)Nc1ccc(CCO)cc1)c1ccc([N+](=O)[O-])cc1 [KS-176]
95

Next up: Nc1ncc2c(n1)CC(c1ccco1)CC2=O (configuration not stated) [NKY-80]
105

Next up: COc1ncc2cc(C(=O)Nc3cc(C(=O)NCc4cccc(Cl)c4)ccc3Cl)c(=O)[nH]c2n1 [TC-S-7004]
97.4

Next up: Nc1nc2[nH]cnc2c(=S)[nH]1 [thioguanine]
99

Next up: CCOC(=O)[C@@H](N)Cc1ccc(O)c(O)c1 [etilevodopa]
96

* * *

# System: Calu-3
# PROCEDURE_DETAILS: cell viability relative to DMSO; higher = less toxic
# TEST_SETTINGS: 72 h; 10 nM
For each record, write down the corresponding cell viability.
Write the answer as a number in %, unit excluded.

Return reported cell viability; argument: "C[C@]12CC[C@H]3[C@@H](CC[C@]4(O)C[C@@H](O)CC[C@]34C=O)[C@@]1(O)CC[C@@H]2C1=CC(=O)OC1"
102

Next up: COc1ccc(CC2NCCc3c2[nH]c2ccc(C)cc32)c(Cl)c1OC (stereo not given)
95.9

Next up: "O=C1NC(=O)c2cc(Nc3ccccc3)c(Nc3ccccc3)cc21"
96.9

Next up: "O=C(Nc1ccccc1C(=O)Nc1ccc(CCO)cc1)c1ccc([N+](=O)[O-])cc1"
87.9

Next up: "NC(=O)CCCCn1ccc(/N=C(\N)NCC(F)(F)F)n1"
96.5

* * *

# Tested on: Caco-2
# PROCEDURE_DETAILS: cell viability relative to DMSO; higher = less toxic
# TEST_SETTINGS: 72 h; 10 nM
RESULT_TYPE: cell viability (%)
Write the answer as a number in %, unit excluded.

Return reported cell viability; argument: CNC(=S)C1(c2ccccn2)CCCS1 (stereo unspecified) [picartamide]
96.8

Next up: CNCCCC1(c2ccccc2)OC(C)(C)c2ccccc21 (stereo unspecified)
104

Next up: N#Cc1c(N(CC(=O)O)CC(=O)O)sc(C(=O)O)c1CC(=O)O [Strontium Ranelate]
102

Next up: O[C@@H](CN1CCC(Cc2ccc(F)cc2)CC1)c1ccc(Cl)cc1 (racemic)
96.2

Next up: "NC(=O)CCCCn1ccc(/N=C(\N)NCC(F)(F)F)n1"
97.8

Next up: "CCCCCCC(=O)OC1CC(C)(C)NC(C)(C)C1"
99.4

* * *

# Tested on: Caco-2
# PROCEDURE_DETAILS: cell viability relative to DMSO; higher = less toxic
# TEST_SETTINGS: 72 h; 10000 nM
RESULT_TYPE: cell viability (%)
Write the answer as a number in %, unit excluded.

Return reported cell viability; argument: "O=C(Nc1ccccc1C(=O)Nc1ccc(CCO)cc1)c1ccc([N+](=O)[O-])cc1"
90.6

Next up: "CC(=O)OCC(CCn1cnc2cnc(N)nc21)COC(C)=O"
82.8

Next up: "C[C@H]1C[C@H]2[C@@H]3CCC4=CC(=O)C=C[C@]4(C)[C@@]3(Cl)[C@@H](O)C[C@]2(C)[C@@]1(O)C(=O)CO"
112

Next up: "O=C1Nc2cc(Cl)c(Cl)cc2N2CCNC[C@H]12"
85.9

Next up: "CCCCCCCCC(=O)N[C@H](CN1CCCC1)[C@H](O)c1ccc2c(c1)OCCO2"
98.9

Next up: "CCOC(=O)[C@H](C)C[C@@H](Cc1ccc(-c2ccccc2)cc1)NC(=O)CCC(=O)O"
100

Next up: CC1CC(OC(=O)C(O)c2ccccc2)CC(C)(C)N1C (centres undefined)
92.6

Next up: "N#Cc1ccccc1-c1cc(-c2ccccn2)cn(-c2ccccc2)c1=O"
104

Next up: "C[N+](C)(C)CCOC(N)=O"
106
